Taken from PubChem BioAssay (NCI).

# Test system: OVCAR-5 ovarian
# Procedure summary: NCI tumour cell line growth inhibition, 48 h
Where a SMILES comes first, the peptide text is derived from it. [ ]: non-standard residue; d: D form.
Listed below: TGI values for each entry.

# example entries with known answers
- Compound: "C[CH2][Sn]([CH2]C)([O]C(=O)c1ccccc1F)[O][Sn]([CH2]C)([CH2]C)[O]C(=O)c1ccccc1F"
  TGI: "> 71.4 µM"
- Compound: "CC(=O)[O][Sn]([CH2]c1ccccc1)([CH2]c1ccccc1)[CH2]c1ccccc1"
  TGI: "> 10 µM"
- Compound: "COc1cc([N+](=O)[O-])c(OC)cc1-c1nc2sccn2c1/C=N/N=C(N)N"
  TGI: "> 100 µM"
- Compound: "CC(=O)Oc1ccc2c3c1O[C@H]1[C@H](O)CC[C@@]4(O)[C@@H](C2)N(C)CC[C@]314"
  TGI: "> 100 µM"
- Compound: "O=C1C(c2cnc3ccccc3n2)=C(O)c2ccccc21"
  TGI: "> 100 µM"
- Compound: "CC(C)C[C@H](NC(=O)[C@H](CC(C)C)NC(=O)[C@@H](Cc1c[nH]c2ccccc12)NC(=O)[C@H](Cc1ccccc1)NC(=O)[C@@H](Cc1c[nH]c2ccccc12)NC(=O)[C@H](CCC(N)=O)NC(=O)[C@H](CCC(N)=O)NC(=O)[C@H]1CCCN1C(=O)[C@@H](N)CCCCN)C(N)=O (H-K[dP]QQ[dW]F[dW]LL-NH2)"
  TGI: "> 100 µM"

Which measured TGI belongs to CC(=O)CC1=C(OC(C)C)C2(OCCO2)C1O (configuration not stated) , tested on OVCAR-5 ovarian?
> 100 µM

Here is the next compound: CC(C)(C)c1[nH]nc2c1C(c1cc3ccccc3[nH]c1=O)Nc1cc(C(=O)OCc3ccccc3)ccc1N2 (configuration not stated)
> 100 µM

Here is the next compound: `Cc1cnc2sn(-c3ccc(Br)cc3)c(=O)c2c1`
> 100 µM

Entry to check: `COc1cc(OC)c(C(=O)/C=C/c2cccc(C#N)c2)c(OC)c1`
7.95 µM

Moving on to the next compound: `[O-]c1ccccc1/C=N/C(/N=C/c1ccccc1[O-])c1ccccc1O.[O-]c1ccccc1/C=N/C(/N=C/c1ccccc1[O-])c1ccccc1O.[Zr+4]`
> 100 µM
